Each recorded value in this set is attributed to patent US20250145665A1.

molecular target: TNFα (Homo sapiens, UniProt P01375); assay: TNF-Induced HEK-Blue Assay; assay type: cell-based; settings: HEK-Blue-CD40L cells, NF-kB-driven secreted alkaline phosphatase reporter; TNFα 0.5 ng/ml; 18 h; read-out: TNF induced HEK-Blue assay IC50 value
Sequence (P01375 77-233 limits assumed): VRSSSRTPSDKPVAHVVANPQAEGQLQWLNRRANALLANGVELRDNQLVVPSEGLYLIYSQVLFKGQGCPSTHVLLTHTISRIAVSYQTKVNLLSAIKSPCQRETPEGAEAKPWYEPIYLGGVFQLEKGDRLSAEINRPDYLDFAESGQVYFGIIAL
Starred links: 1 amine or outer side, 2 acyl side, 3 side chain; linkers in the order of their positions; H or OH if unused. Positions of bridges follow the written chain, without caps; N, C: chain ends. Non-standard residues stand in square brackets, D forms with d. Residues, ends and D or L forms follow the SMILES beside them. ξ: configuration not given here. X37 = O=C(Nc1ccc(-c2ccc(C[C@H](N[*:1])C(=O)[*:2])cc2)cc1)c1ccc2ccccc2c1; Bip(4'-NHAc) = CC(=O)Nc1ccc(-c2ccc(C[C@H](N)C(=O)O)cc2)cc1; Ala(imidazol-2-yl) = N[C@@H](Cc1ncc[nH]1)C(=O)O; Ala(morpholin-4-yl) = N[C@@H](CN1CCOCC1)C(=O)O; Bip = N[C@@H](Cc1ccc(-c2ccccc2)cc1)C(=O)O; Phe(2-F) = N[C@@H](Cc1ccccc1F)C(=O)O; Tic = O=C(O)[C@@H]1Cc2ccccc2CN1; Cha = N[C@@H](CC1CCCCC1)C(=O)O; ξAze = O=C(O)C1CCN1; Sar = CNCC(=O)O
attribute.measured: IC50

Please review the following examples before continuing.
INSERT INTO results (molecule, result_value) VALUES
  ('CC(=O)Nc1ccc(-c2ccc(C[C@@H]3NC(=O)[C@H](Cc4ccc(-c5ccccc5)cc4)NC(=O)[C@H](CC4CCCCC4)NC(=O)CSC[C@@H](C(=O)NCC(N)=O)NC(=O)[C@H](CC(C)C)NC(=O)[C@H](Cc4ncc[nH]4)NC(=O)[C@H](C(C)C)NC(=O)C4CCN4C(=O)[C@H](C(C)C)NC(=O)[C@@H](CCCNC(=N)N)NC(=O)[C@H](CC(=O)O)NC(=O)[C@@H]4CCCN4C(=O)CN(C)C3=O)cc2)cc1 (stereo partly shown) [Example 466] ({CH2CO}-[Cha][Bip][Bip(4''-NHAc)][Sar]PD[dR]V[ξAze]V[Ala(imidazol-2-yl)]LCG-NH2; thioether N-13)', '< 50 nM'),
  ('CC[C@H](C)[C@@H]1NC(=O)[C@@H](CCCNC(=N)N)NC(=O)[C@H](CC(=O)O)NC(=O)[C@H](Cc2cnc[nH]2)NC(=O)CN(C)C(=O)[C@H](Cc2ccc(-c3ccc(NC(=O)c4ccc5ccccc5c4)cc3)cc2)NC(=O)[C@H](Cc2ccc(-c3ccccc3)cc2)NC(=O)[C@H](CC2CCCCC2)NC(=O)CSC[C@@H](C(=O)NCC(N)=O)NC(=O)[C@H](CC(C)C)NC(=O)[C@H](Cc2cnc[nH]2)NC(=O)[C@H](C(C)C)NC(=O)[C@@H]2CCCN2C1=O [Example 322] ({CH2CO}-[Cha][Bip][X37][Sar]HD[dR]IPVHLCG-NH2; thioether N-13)', '50 to 200 nM'),
  ('CC(C)C[C@@H]1NC(=O)[C@H](CCCNC(=N)N)NC(=O)[C@H](C(C)C)NC(=O)[C@@H]2CCCN2C(=O)[C@H](Cc2ccccc2F)NC(=O)[C@H](CCCNC(=N)N)NC(=O)[C@H](CC(=O)O)NC(=O)[C@@H]2CCCN2C(=O)CN(C)C(=O)[C@H](Cc2ccc(-c3ccccc3)cc2)NC(=O)[C@H](Cc2ccc(-c3ccccc3)cc2)NC(=O)[C@H](CN2CCOCC2)NC(=O)CSC[C@@H](C(=O)NCC(N)=O)NC1=O [Example 53] ({CH2CO}-[Ala(morpholin-4-yl)][Bip][Bip][Sar]PDR[Phe(2-F)]PVRLCG-NH2; thioether N-13)', '200 to 2000 nM');

Entry CC(C)C[C@@H]1NC(=O)[C@H](Cc2ccc(O)cc2)NC(=O)[C@H](C(C)C)NC(=O)[C@@H]2Cc3ccccc3CN2C(=O)[C@H](C(C)C)NC(=O)[C@@H](CCCNC(=N)N)NC(=O)[C@H](CC(=O)O)NC(=O)[C@@H]2CCCN2C(=O)CN(C)C(=O)[C@H](Cc2ccc(-c3ccccc3)cc2)NC(=O)[C@H](Cc2ccc(-c3ccccc3)cc2)NC(=O)[C@H](CN2CCOCC2)NC(=O)CSC[C@@H](C(=O)NCC(N)=O)NC1=O [Example 81] ({CH2CO}-[Ala(morpholin-4-yl)][Bip][Bip][Sar]PD[dR]V[Tic]VYLCG-NH2; thioether N-13) — recorded IC50 = 50 to 200 nM

---

target: TNFα (Homo sapiens, UniProt P01375); assay: TNF-Induced HEK-Blue Assay; assay type: cell-based; settings: HEK-Blue-CD40L cells, NF-kB-driven secreted alkaline phosphatase reporter; TNFα 0.5 ng/ml; 18 h; read-out: TNF induced HEK-Blue assay IC50 value
Positions of bridges follow the written chain, without caps; N, C: chain ends. Non-standard residues stand in square brackets, D forms with d. Residues, ends and D or L forms follow the SMILES beside them. Bip(4'-COOH) = N[C@@H](Cc1ccc(-c2ccc(C(=O)O)cc2)cc1)C(=O)O; Bip = N[C@@H](Cc1ccc(-c2ccccc2)cc1)C(=O)O; Sar = CNCC(=O)O
attribute.measured: IC50

Entry CC(C)C[C@@H]1NC(=O)[C@H](Cc2ccc(O)cc2)NC(=O)[C@H](C(C)C)NC(=O)[C@@H]2CCCN2C(=O)[C@H](C(C)C)NC(=O)[C@@H](CCCNC(=N)N)NC(=O)[C@H](CC(=O)O)NC(=O)[C@H](Cc2ccc(O)cc2)NC(=O)CN(C)C(=O)[C@H](Cc2ccc(-c3ccccc3)cc2)NC(=O)[C@H](Cc2ccc(-c3ccc(C(=O)O)cc3)cc2)NC(=O)[C@H](Cc2c[nH]c3ccccc23)NC(=O)CSC[C@@H](C(=O)NCC(N)=O)NC1=O [Example 189] ({CH2CO}-W[Bip(4'-COOH)][Bip][Sar]YD[dR]VPVYLCG-NH2; thioether N-13) — recorded IC50 = 0.2 to 2 µM

---

target: TNFα (Homo sapiens, UniProt P01375); assay: TNF-Induced HEK-Blue Assay; assay type: cell-based; settings: HEK-Blue-CD40L cells, NF-kB-driven secreted alkaline phosphatase reporter; TNFα 0.5 ng/ml; 18 h; read-out: TNF induced HEK-Blue assay IC50 value
Positions of bridges follow the written chain, without caps; N, C: chain ends. Non-standard residues stand in square brackets, D forms with d. Residues, ends and D or L forms follow the SMILES beside them. Ala(morpholin-4-yl) = N[C@@H](CN1CCOCC1)C(=O)O; Bip = N[C@@H](Cc1ccc(-c2ccccc2)cc1)C(=O)O; 3Pal = N[C@@H](Cc1cccnc1)C(=O)O; Aze = O=C(O)[C@@H]1CCN1; Sar = CNCC(=O)O
Readings of IC50 for the listed compounds

INSERT INTO results (compound, experimental_target, result_value) VALUES
  ('CC(C)C[C@@H]1NC(=O)[C@H](CCCNC(=N)N)NC(=O)[C@H](C(C)C)NC(=O)[C@@H]2CCCN2C(=O)[C@H](C(C)C)NC(=O)[C@H](CCCNC(=N)N)NC(=O)[C@H](CC(=O)O)NC(=O)[C@@H]2CCCN2C(=O)CN(C)C(=O)[C@H](Cc2ccc(-c3ccccc3)cc2)NC(=O)[C@H](Cc2ccc(-c3ccccc3)cc2)NC(=O)[C@H](Cc2cccnc2)NC(=O)CSC[C@@H](C(=O)NCC(N)=O)NC1=O [Example 29] ({CH2CO}-[3Pal][Bip][Bip][Sar]PDRVPVRLCG-NH2; thioether N-13)', 'TNFα (Homo sapiens, UniProt P01375)', '200 to 2000 nM');

Here's the next entry for you.
Per the reported TNFα (Homo sapiens, UniProt P01375) data, CC(C)C[C@@H]1NC(=O)[C@H](Cc2ccc(O)cc2)NC(=O)[C@H](C(C)C)NC(=O)[C@@H]2CCN2C(=O)[C@H](C(C)C)NC(=O)[C@@H](CCCNC(=N)N)NC(=O)[C@H](CC(=O)O)NC(=O)[C@@H]2CCCN2C(=O)CN(C)C(=O)[C@H](Cc2ccc(-c3ccccc3)cc2)NC(=O)[C@H](Cc2ccc(-c3ccccc3)cc2)NC(=O)[C@H](CN2CCOCC2)NC(=O)CSC[C@@H](C(=O)NCC(N)=O)NC1=O [Example 82] ({CH2CO}-[Ala(morpholin-4-yl)][Bip][Bip][Sar]PD[dR]V[Aze]VYLCG-NH2; thioether N-13) has IC50 of 200 to 2000 nM

---

molecular target: UniProt P01375; test: TNF-Induced HEK-Blue Assay; format: cell-based; settings: HEK-Blue-CD40L cells, NF-kB-driven secreted alkaline phosphatase reporter; TNFα 0.5 ng/ml; 18 h; read-out: TNF induced HEK-Blue assay IC50 value
Starred links: 1 amine or outer side, 2 acyl side, 3 side chain; linkers in the order of their positions; H or OH if unused. Positions of bridges follow the written chain, without caps; N, C: chain ends. Non-standard residues stand in square brackets, D forms with d. Residues, ends and D or L forms follow the SMILES beside them. X52 = Cc1c(C(=O)O)cccc1C(=O)Nc1ccc(-c2ccc(C[C@H](N[*:1])C(=O)[*:2])cc2)cc1; Ala(morpholin-4-yl) = N[C@@H](CN1CCOCC1)C(=O)O; Bip = N[C@@H](Cc1ccc(-c2ccccc2)cc1)C(=O)O; Tic = O=C(O)[C@@H]1Cc2ccccc2CN1; Cha = N[C@@H](CC1CCCCC1)C(=O)O; Sar = CNCC(=O)O
attribute.measured: IC50

Please review the following examples before continuing.
INSERT INTO assay_data (molecule, result_value) VALUES
  ('CC(C)C[C@@H]1NC(=O)[C@H](Cc2ccc(O)cc2)NC(=O)[C@H](C(C)C)NC(=O)[C@@H]2CCCN2C(=O)[C@H](C(C)C)NC(=O)[C@@H](CCCNC(=N)N)NC(=O)[C@H](CC(=O)O)NC(=O)[C@H](Cc2ccc(O)cc2)NC(=O)CN(C)C(=O)[C@H](Cc2ccc(-c3ccccc3)cc2)NC(=O)[C@H](Cc2ccc(-c3ccccc3)cc2)NC(=O)[C@H](Cc2ccccc2)NC(=O)CSC[C@@H](C(=O)NCC(N)=O)NC1=O [Example 62] ({CH2CO}-F[Bip][Bip][Sar]YD[dR]VPVYLCG-NH2; thioether N-13)', '50 to 200 nM'),
  ('CC(C)C[C@@H]1NC(=O)[C@H](CCCNC(=N)N)NC(=O)[C@H](C(C)C)NC(=O)[C@@H]2CCCN2C(=O)[C@H](C(C)C)NC(=O)[C@H](CCCNC(=N)N)NC(=O)[C@H](CC(=O)O)NC(=O)[C@@H]2Cc3ccccc3CN2C(=O)CN(C)C(=O)[C@H](Cc2ccc(-c3ccccc3)cc2)NC(=O)[C@H](Cc2ccc(-c3ccccc3)cc2)NC(=O)[C@H](Cc2ccccc2)NC(=O)CSC[C@@H](C(=O)NCC(N)=O)NC1=O [Example 45] ({CH2CO}-F[Bip][Bip][Sar][Tic]DRVPVRLCG-NH2; thioether N-13)', '200 to 2000 nM'),
  ('CC[C@H](C)[C@@H]1NC(=O)[C@@H](CCCNC(=N)N)NC(=O)[C@H](CC(=O)O)NC(=O)[C@H](Cc2cnc[nH]2)NC(=O)CN(C)C(=O)[C@H](Cc2ccc(-c3ccc(NC(=O)c4cccc(C(=O)O)c4C)cc3)cc2)NC(=O)[C@H](Cc2ccc(-c3ccccc3)cc2)NC(=O)[C@H](CC2CCCCC2)NC(=O)CSC[C@@H](C(=O)NCC(N)=O)NC(=O)[C@H](CC(C)C)NC(=O)[C@H](Cc2cnc[nH]2)NC(=O)[C@H](C(C)C)NC(=O)[C@@H]2CCCN2C1=O [Example 447] ({CH2CO}-[Cha][Bip][X52][Sar]HD[dR]IPVHLCG-NH2; thioether N-13)', '50 to 200 nM');

Per the reported UniProt P01375 data, CC(C)C[C@@H]1NC(=O)[C@H](Cc2ccc(O)cc2)NC(=O)[C@H](CC(C)C)NC(=O)[C@@H]2CCCN2C(=O)[C@H](C(C)C)NC(=O)[C@@H](CCCNC(=N)N)NC(=O)[C@H](CC(=O)O)NC(=O)[C@H](Cc2ccc(O)cc2)NC(=O)CN(C)C(=O)[C@H](Cc2ccc(-c3ccccc3)cc2)NC(=O)[C@H](Cc2ccc(-c3ccccc3)cc2)NC(=O)[C@H](CN2CCOCC2)NC(=O)CSC[C@@H](C(=O)NCC(N)=O)NC1=O [Example 149] ({CH2CO}-[Ala(morpholin-4-yl)][Bip][Bip][Sar]YD[dR]VPLYLCG-NH2; thioether N-13) has IC50 of 50 to 200 nM
